The values you see were collected from the supplement of paper PMC10883282.

System: RD-ES
Test: relative viability vs DMSO control (72 h) (fraction); higher = more viable cells
Conditions: 10 µM
Please note: relative viability exactly at 0.2 is not fulfilled. Only values below 0.2 get fulfilled.

Answered cases to consult:
structure_as_smiles	classification
COc1cc(OC)cc(N(CCNC(C)C)c2ccc3ncc(-c4cnn(C)c4)nc3c2)c1	fulfilled
C[C@@H]1COC(Nc2ccc3ncnc(Nc4ccc(OCc5nccs5)c(Cl)c4)c3c2)=N1	not fulfilled
Cc1cccc(-c2[nH]c(CNc3ccccc3F)nc2-c2ccc3ncnn3c2)n1	not fulfilled
CO[C@H]1C[C@@H]2CC[C@@H](C)[C@@](O)(O2)C(=O)C(=O)N2CCCC[C@H]2C(=O)O[C@H]([C@H](C)C[C@@H]2CC[C@@H](O)[C@H](OC)C2)CC(=O)[C@H](C)/C=C(\C)[C@@H](O)[C@@H](OC)C(=O)[C@H](C)C[C@H](C)/C=C/C=C/C=C/1C	not fulfilled
CCCS(=O)(=O)N[C@H]1C[C@@H](N(C)c2ncnc3[nH]ccc23)C1	not fulfilled

Query string: Given `NC(=O)c1cnc2[nH]ccc2c1N[C@@H]1[C@@H]2CC3C[C@H]1C[C@@](O)(C3)C2` , is recorded relative viability strictly lower than 0.2?
Result string: not fulfilled

Query string: Now the same for `COc1cc2ncnc(Nc3ccc(F)c(Cl)c3)c2cc1NC(=O)/C=C/CN1CCCCC1`
Result string: fulfilled

Query string: Now the same for `Cc1ccc(C(=O)OCc2ccc([C@@H](CN)C(=O)Nc3ccc4cnccc4c3)cc2)c(C)c1`
Result string: fulfilled

Query string: Now the same for `COc1cc2nccc(Oc3ccc(NC(=O)NC4CC4)c(Cl)c3)c2cc1C(N)=O`
Result string: not fulfilled

Query string: Now the same for `N#CCC1(n2cc(-c3ncnc4[nH]ccc34)cn2)CN(C2CCN(C(=O)c3ccnc(C(F)(F)F)c3F)CC2)C1`
Result string: not fulfilled

###

Test system: SW1353
Experiment: standardised AUC of viability dose-response curve (72 h) (fraction (0-1)); higher = less growth inhibition (more resistant)
readout_kind: standardised AUC
Quick one: just the number, no unit, thanks!

Some molecules with recorded standardised AUC:
> print(dat)
                                   molecule  numeric.value
1  FC(F)(F)c1ccc(CNc2ccc(Cc3c[nH]c4ncc(Cl)cc34)cn2)cn1 [PEXIDARTINIB]          0.935
2  C[C@@H](Oc1cc(-c2cnn(C3CCNCC3)c2)cnc1N)c1c(Cl)ccc(F)c1Cl [CRIZOTINIB]          0.915
3  COc1cc2nccc(Oc3ccc(NC(=O)C4(C(=O)Nc5ccc(F)cc5)CC4)cc3)c2cc1OC [CABOZANTINIB]          0.855

Query string: Give the measured standardised AUC of CCCCCCCCCCCCCCCCCCOP(=O)([O-])OC1CC[N+](C)(C)CC1 [PERIFOSINE] .
Result string: 0.962

###

System: MES-SA
Assay: relative viability vs DMSO control (72 h) (fraction); higher = more viable cells
Details: 1.111 µM
readout_kind: relative viability

Some molecules with recorded relative viability:
> print(dat)
                        structure.as.smiles        readout.kind  result
1  FC(F)(F)c1ccc(CNc2ccc(Cc3c[nH]c4ncc(Cl)cc34)cn2)cn1  relative viability   0.892
2  Cc1cccc(-c2[nH]c(CNc3ccccc3F)nc2-c2ccc3ncnn3c2)n1  relative viability   0.842
3  NC(=O)c1cccc2cn(-c3ccc([C@@H]4CCCNC4)cc3)nc12  relative viability   0.824
4  Cc1cn(-c2cc(NC(=O)c3ccc(C)c(Nc4nccc(-c5cccnc5)n4)c3)cc(C(F)(F)F)c2)cn1  relative viability   0.891

The record that follows has no relative viability shown yet.
Query string: Give the measured relative viability of `COc1cc2ncnc(Nc3ccc(F)c(Cl)c3)c2cc1NC(=O)/C=C/CN1CCCCC1` .
Result string: 0.731
